# PROTOCOL SUMMARY: reduction of polyQ htt aggregates in cells – imaging, exon1htt(103Q)mCFP cells, high-content imaging, primary screen (AID 483);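 also: compound exposure lasted 3 days before fixation; percent of the per-plate median nuclei count of sample wells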
# APPLIED CONDITIONS: exon1htt(103Q)mCFP cell line, aggregate imaging, at 2 µM; measured here: cell count, toxicity
Recorded nuclei count values for a group of compounds are listed next.
QUANTITY NAME: nuclei count (%)

INSERT INTO measurements (compound, quantity_name, unit_abbreviation, numeric_readout) VALUES
  ('COC(=O)Cc1c(C)nc2nc[nH]n2c1=O', 'nuclei count', '%', 103),
  ('COCC(C)NC(=O)NC(=O)c1ccc(Cl)cc1 (stereo not given)', 'nuclei count', '%', 100),
  ('Cc1ccc(C2Nc3ccccc3-c3nc4ccccc4n32)o1 (stereo not given)', 'nuclei count', '%', 88.4),
  ('CC1(C)Cc2cccc(OCC(=O)O)c2O1', 'nuclei count', '%', 100),
  ('CC1CCN(C(=O)Cn2cc3c(n2)CCCC3)CC1', 'nuclei count', '%', 114),
  ('CCOC(=O)c1cnc(SC2CC(=O)N(c3ccc(OC)c(OC)c3)C2=O)nc1N (stereo not given)', 'nuclei count', '%', 95.4),
  ('CCN(CC)C(=O)C1CCCc2c1[nH]c1ccc(Cl)cc21 (stereo not given)', 'nuclei count', '%', 109),
  ('Cc1cccc(CC2CC(=O)N(c3ccccc3)C2=O)c1 (stereo not given)', 'nuclei count', '%', 84.5),
  ('COC(=O)C1C(=O)c2c([nH]c(C(=O)OCCOC(C)C)c2C)CC1C (stereo not given)', 'nuclei count', '%', 112),
  ('CC(C)Cn1c(CN(Cc2ccccc2)Cc2ccccc2)nc2c1c(=O)n(C)c(=O)n2C', 'nuclei count', '%', 124),
  ('CCOc1ccc(N(CC(=O)NCc2ccco2)S(=O)(=O)c2ccc(OC)c(OC)c2)cc1', 'nuclei count', '%', 110),
  ('CC(=O)NC(Cc1cc(C)ccc1C)C(=O)N1CCN(C(=O)Nc2ccc(C(C)=O)cc2)CC1 (stereo not given)', 'nuclei count', '%', 106),
  ('COc1ccc(CC(NC(C)=O)C(=O)N2CCN(C(=O)N(C(C)C)C(C)C)CC2)cc1 (stereo not given)', 'nuclei count', '%', 91.9),
  ('Cc1ccc(C(=O)CC2(O)C(=O)N(CN3CCOCC3)c3ccccc32)cc1 (stereo not given)', 'nuclei count', '%', 103),
  ('O=C(CSc1ncnc2nc[nH]c12)c1ccc(Cl)cc1', 'nuclei count', '%', 101),
  ('CCOC(=O)c1cc2c(=O)n3cccc(C)c3nc2n(CCOC)c1=NC(=O)c1ccncc1', 'nuclei count', '%', 100),
  ('CSCCC(NC(=O)c1occc1C)C(=O)O (stereo not given)', 'nuclei count', '%', 108),
  ('Cn1c(=O)[nH]c(=O)c2c1nc(NCCCn1ccnc1)n2Cc1cccc(Br)c1', 'nuclei count', '%', 68.9),
  ('CSc1nnc(-c2ccc(NC(=O)CCc3ccccc3)cc2)n1C', 'nuclei count', '%', 100),
  ('CCOC(=O)C1=C(O)C(=O)N(c2ccc(S(N)(=O)=O)cc2)C1c1ccccc1 (stereo not given)', 'nuclei count', '%', 108),
  ('CCc1cccc(NC(=O)C2CCCN(S(=O)(=O)c3c(C)[nH]c(=O)[nH]c3=O)C2)c1 (stereo not given)', 'nuclei count', '%', 106),
  ('COc1cc(CN2CCN(C(=O)CC(C)C)CC2)cc(OC)c1O', 'nuclei count', '%', 99.7),
  ('c1ccc(N2CCN(Cc3cn4cccnc4n3)CC2)cc1', 'nuclei count', '%', 107),
  ('O=C(CN1CCN(c2nc(-c3ccc(F)cc3)cs2)CC1)NCc1ccc2c(c1)OCO2', 'nuclei count', '%', 108),
  ('O=C(NCCC1=CCCCC1)c1cc2c(s1)CS(=O)(=O)C2', 'nuclei count', '%', 102),
  ('Cc1nc2ccccc2c(=O)n1CC(=O)N1CCOCC1', 'nuclei count', '%', 78.3),
  ('CCOc1ccc(NC(=O)CSc2nnc(COc3c(C)cccc3C)o2)cc1', 'nuclei count', '%', 116),
  ('CCCS(=O)(=O)N1CCCC(C(=O)NC(C)c2ccc3c(c2)OCCO3)C1 (stereo not given)', 'nuclei count', '%', 101),
  ('CCOC(=O)c1ccccc1NC(=O)c1ccc2c(=O)n3c(nc2c1)CCCCC3', 'nuclei count', '%', 114),
  ('Cn1c(=O)c(=O)n(C)c2cc(S(=O)(=O)N3CCCCC3)ccc21', 'nuclei count', '%', 83.6),
  ('CCCCCCc1ccc(-c2ncc(N)cn2)cc1', 'nuclei count', '%', 110),
  ('COCCn1c(SCC(=O)Nc2cccc(OC)c2)nnc1-c1ccc(Cl)cc1', 'nuclei count', '%', 94.1),
  ('COc1ccc(-c2nnc(SCC(=O)c3cc(C)n(Cc4cccs4)c3C)o2)cc1', 'nuclei count', '%', 97.7),
  ('CCOc1ccc(N(CC(=O)Nc2cccc(OC)c2)S(=O)(=O)c2c(C)noc2C)cc1', 'nuclei count', '%', 67),
  ('Cc1cc(Oc2ccc(Cl)cc2)nc(-c2ccccc2O)n1', 'nuclei count', '%', 73.2),
  ('CC(C)Cn1c(CN2CCCCC2C)nc2c1c(=O)n(C)c(=O)n2C (stereo not given)', 'nuclei count', '%', 93),
  ('COC(=O)Nc1ccccc1C(=O)N1CCCCC1', 'nuclei count', '%', 120),
  ('COc1ccc2ccccc2c1CN1CCN(C)CC1', 'nuclei count', '%', 93.7),
  ('CCOC(=O)c1ccccc1NC(=O)c1ccc(NS(C)(=O)=O)cc1', 'nuclei count', '%', 90.2),
  ('CC1(C)CC(=O)C2=C(C1)OC(N)=C(C#N)C2C1CC=CCC1 (stereo not given)', 'nuclei count', '%', 119),
  ('CC(=O)NC(Cc1ccc(C)cc1)C(=O)NC1CCN(C(=O)c2cnccn2)CC1 (stereo not given)', 'nuclei count', '%', 130),
  ('Fc1ccc(-c2csc3nnc(SCc4cccnc4)n23)cc1', 'nuclei count', '%', 97.5),
  ('Cc1c(C(=O)OC2CCCCC2)[nH]c2c1C(=O)CC(C)(C)C2', 'nuclei count', '%', 108),
  ('COc1cccc(-n2ccnc2SCC(=O)N2CCc3ccccc32)c1', 'nuclei count', '%', 108),
  ('O=C(NCc1cccnc1)c1ccccn1', 'nuclei count', '%', 113);

###

# EXPERIMENTAL TARGET: Voltage-gated potassium channel subunit beta-2 (Rattus norvegicus) (UniProt P62483)
# Sequence (P62483 whole entry, looked up): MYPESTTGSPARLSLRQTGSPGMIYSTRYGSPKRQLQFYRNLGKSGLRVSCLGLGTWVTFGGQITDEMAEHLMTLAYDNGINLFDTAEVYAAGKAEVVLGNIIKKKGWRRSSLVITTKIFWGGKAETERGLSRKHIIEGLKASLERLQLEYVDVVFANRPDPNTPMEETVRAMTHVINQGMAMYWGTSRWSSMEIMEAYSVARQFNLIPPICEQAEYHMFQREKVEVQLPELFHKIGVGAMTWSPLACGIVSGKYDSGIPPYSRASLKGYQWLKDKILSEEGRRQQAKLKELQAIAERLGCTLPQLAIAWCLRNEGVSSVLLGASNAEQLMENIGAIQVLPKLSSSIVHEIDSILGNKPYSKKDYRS
# PROTOCOL SUMMARY: enhancers of rat Kvbeta2 NADPH turnover – biochemical, NADPH fluorescence, primary screen (AID 623);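 also: fluorescence intensity change per second fitted from 20 to 320 s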
# APPLIED CONDITIONS: Recombinant KvBeta, NADPH fluorescence decrease slope, 10 min; at 10 µM; stronger effect = lower value
Recorded NADPH fluorescence slope values for a group of compounds are listed next.
QUANTITY NAME: NADPH fluorescence slope

INSERT INTO results (compound, quantity_name, numeric_readout) VALUES
  ('CCOc1ccc(-c2cn(S(=O)(=O)c3cccc4nsnc34)nc2N)cc1', 'NADPH fluorescence slope', '-3.8e-05'),
  ('CCOC(=O)c1cnc(-n2cc(C)cn2)nc1Nc1ccccc1OC', 'NADPH fluorescence slope', '-4.8e-05'),
  ('CCOC(=O)N1CCC(N(C(=O)Nc2cccc(OC)c2)C(C)CC)CC1 (stereo not given)', 'NADPH fluorescence slope', '-3.9e-05'),
  ('CC(C)(C)c1cc(CCC(=O)N2CCNCC2)c(C(C)(C)C)cc1O', 'NADPH fluorescence slope', '-9e-05'),
  ('CC(C)(C)NC(=O)C(c1ccco1)N(C(=O)Cn1nnc(-c2ccc(F)cc2)n1)c1ccccc1F (stereo not given)', 'NADPH fluorescence slope', '-6.1e-05');

###

Recorded nuclei count values for a group of compounds are listed next.
# PROTOCOL SUMMARY: reduction of polyQ htt aggregates in cells – imaging, exon1htt(103Q)mCFP cells, high-content imaging, primary screen (AID 483);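 also: compound exposure lasted 3 days before fixation; percent of the per-plate median nuclei count of sample wells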
# APPLIED CONDITIONS: exon1htt(103Q)mCFP cell line, aggregate imaging, at 2 µM; measured here: cell count, toxicity
QUANTITY NAME: nuclei count (%)

INSERT INTO measurements (compound, numeric_readout) VALUES
  ('CN1CCN(c2oc(COc3ccc(-c4ccccc4)cc3)nc2C#N)CC1', 98.4),
  ('Nn1c(SCC(=O)Nc2ccc3c(c2)OCO3)nnc1C1CC1', 100),
  ('CC(C)Cn1c(N)c(C(=O)NCCN2CCOCC2)c2nc3ccccc3nc21', 101),
  ('Cc1cccc(N2C(=O)CC(N3CCN(c4cccc(C(F)(F)F)c4)CC3)C2=O)c1 (stereo not drawn)', 126),
  ('CC(=O)NCCc1nc2ccccc2[nH]1', 114),
  ('O=C(Nc1ccc(N2CCOCC2)cc1)C1CC1', 83.9),
  ('CCOC(=O)c1cc2sc(C)cc2n1C(C)C(=O)OCC (stereo not drawn)', 106),
  ('CCOc1ccc(N(CC)C(=O)COc2cc(=O)n(C)c3ccccc23)cc1', 101),
  ('Cc1csc(NC(=O)C2CCCO2)n1 (stereo not drawn)', 101),
  ('CCN1CCN(Cc2nc3c(c(=O)n(C)c(=O)n3C)n2CC(=O)c2ccccc2)CC1', 89.6),
  ('CC(=O)c1ccc(OCC(O)CN2CCN(CCO)CC2)cc1 (stereo not drawn)', 104),
  ('[N-]=[N+]=CC(=O)CC(c1ccccc1)N1C(=O)c2ccccc2C1=O (stereo not drawn)', 58.6),
  ('O=S(=O)(NC1CCCCC1NS(=O)(=O)c1ccc(F)cc1)c1ccc(F)cc1 (stereo not drawn)', 101),
  ('Cc1ccc(NC(=O)CN(c2ccc3c(c2)OCO3)S(=O)(=O)c2c(C)n[nH]c2C)cc1', 108),
  ('O=C(NCC1CCCO1)C1c2ccccc2C(=O)N1C1CCCCCC1 (stereo not drawn)', 101),
  ('Cc1ccc(Cc2c(C)nc3c(C(=O)O)cnn3c2C)cc1', 108),
  ('O=C(O)C1CC=CCC1C(=O)NCc1ccccc1 (stereo not drawn)', 107),
  ('O=C(O)CCNc1nc(-c2ccccc2)nc2ccccc12', 103),
  ('COCCNC(=O)C(c1ccncc1)N(C(=O)Cn1nnc2ccccc21)c1ccc(OC)cc1 (stereo not drawn)', 100),
  ('O=C(CN1C(=O)CC(c2ccco2)Sc2ccccc21)Nc1ccccc1F (stereo not drawn)', 111),
  ('Cc1cc(NC(=O)c2ccccc2)ncc1NC(=O)c1ccco1', 100),
  ('Cc1ccc(Cl)cc1N1CCN(C(=O)CN2C(=O)c3cccc4cccc2c34)CC1', 89.4),
  ('Cc1cc(C(=O)Nc2nc3c(s2)CCCC3)cs1', 111);

Where do the numbers come from? From PubChem BioAssay.
